# protocol-text: Rat liver microsomes stability
# Format: in vitro ADME
# cond: Rat liver microsomes
// reported Predicted hepatic CL for each item listed
Expressed in mL/min/kg, but write only the number.

Please review the entries below; each comes with its answer.
compound | Predicted hepatic CL, mL/min/kg
CCN(C)CCc1c[nH]c2ccc(SC)cc12 [Compound I-13] | 42.35
CSc1ccc2[nH]cc(CCN(C(C)C)C(C)C)c2c1 [Compound I-17] | 30.01
CSc1ccc2[nH]cc(CCN(C)C(C)C)c2c1 [Compound I-19] | 16.73
CCN(CC)CCc1c[nH]c2ccc(SC)cc12 [Compound I-12] | 30.14

# context switch: different compound, same Predicted hepatic CL
Prompt: Endpoint output: Predicted hepatic CL of COc1ccc2[nH]cc(CCN(C)C)c2c1 [Compound 5-MeO-DMT] . Value?
Response: 49.02

* * *

# protocol-text: Pharmacokinetic studies in rat (i.v.)
# Assay type: in vivo
# cond: male, Sprague-Dawley, rat, plasma, iv, 1.33 mg/kg, I-17 1.33 mg/kg i.v., rat plasma, 0.25 h, Mean ± SD; read-out: Plasma concentration
measured-endpoint: concentration at 0.25 h

Prompt: What value of concentration at 0.25 h has been reported for the following compound? CSc1ccc2[nH]cc(CCN(C(C)C)C(C)C)c2c1
Response: 198 ng/mL

* * *

# protocol-text: Human liver microsomes stability
# Format: in vitro ADME
# cond: human liver microsomes, With Cofactors, 30 min
measured-endpoint: Remaining Percentage (%)
Please respond with the number in % and leave the unit unwritten.

// solved cases for Remaining Percentage (%) follow
compound | measured-endpoint | unit-abbrev | recorded-result
CN(CCOC(F)F)CCc1c[nH]c2ccccc12 | Remaining Percentage (%) | % | 11.46
COc1ccc2[nH]cc(CCN3CC[C@H](OC(F)F)C3)c2c1 [(S) I-67] | Remaining Percentage (%) | % | 66.20
COc1ccc2[nH]cc(CCN3CC[C@@H](OC)C3)c2c1 [(R) I-66] | Remaining Percentage (%) | % | 98.13
CN(C)CCc1c[nH]c2ccc(OCCOC(F)F)cc12 | Remaining Percentage (%) | % | 41.35
COc1ccc2[nH]cc(CCN(C)CCOC(F)F)c2c1 | Remaining Percentage (%) | % | 26.55
O=C(O)Cc1ccccc1Nc1c(Cl)cccc1Cl | Remaining Percentage (%) | % | 5.01
COc1ccc2[nH]cc(CCN(C)C)c2c1 | Remaining Percentage (%) | % | 19.24

Now, please, on to the next compound.
Prompt: Please report the recorded Remaining Percentage (%) for COc1ccc2[nH]cc(CCN3CC[C@@H](OC(F)F)C3)c2c1 [(R) I-67] .
Response: 47.22

* * *

# protocol-text: Pharmacokinetic studies in rat (i.v.)
# Type: in vivo
# cond: male, Sprague-Dawley, rat, plasma, iv, 1.33 mg/kg, I-17 1.33 mg/kg i.v., rat plasma, 4 h, individual rats R07-R09; read-out: Plasma concentration
measured-endpoint: concentration at 4 h (ng/mL)
Give just the number in ng/mL; leave the unit off.

Prompt: Fill in the blank: the reported concentration at 4 h of CSc1ccc2[nH]cc(CCN(C(C)C)C(C)C)c2c1 is ____.
Response: 25.8

* * *

Parameter CLint scaled at 2 μM: see the listing below.
# protocol-text: Human liver microsomes stability
# Format: in vitro ADME
# cond: Human liver microsomes; read-out: Scaled-up CLint
The response must be a number in mL/min/kg with no trailing unit.

// worked examples, CLint scaled at 2 μM included
structure-as-smiles | measured-endpoint | unit-abbrev | recorded-result
[2H]C([2H])([2H])N(CCc1c[nH]c2ccc(SC)cc12)C([2H])([2H])[2H] | CLint scaled at 2 μM | mL/min/kg | 288
CSc1ccc2[nH]cc(CCN(C)C(C)C)c2c1 | CLint scaled at 2 μM | mL/min/kg | 92.9

Prompt: Bench note: what CLint scaled at 2 μM did CSc1ccc2[nH]cc(CCN(C(C)C)C(C)C)c2c1 show?
Response: 249

Prompt: Entry CCN(CC)CCc1c[nH]c2ccc(SC)cc12 please
Response: 67.5

Prompt: Would you kindly repeat that for CCN(C)CCc1c[nH]c2ccc(SC)cc12 ?
Response: 148

* * *

# target-desc: UniProtKB P08908
# Sequence (P08908 whole entry): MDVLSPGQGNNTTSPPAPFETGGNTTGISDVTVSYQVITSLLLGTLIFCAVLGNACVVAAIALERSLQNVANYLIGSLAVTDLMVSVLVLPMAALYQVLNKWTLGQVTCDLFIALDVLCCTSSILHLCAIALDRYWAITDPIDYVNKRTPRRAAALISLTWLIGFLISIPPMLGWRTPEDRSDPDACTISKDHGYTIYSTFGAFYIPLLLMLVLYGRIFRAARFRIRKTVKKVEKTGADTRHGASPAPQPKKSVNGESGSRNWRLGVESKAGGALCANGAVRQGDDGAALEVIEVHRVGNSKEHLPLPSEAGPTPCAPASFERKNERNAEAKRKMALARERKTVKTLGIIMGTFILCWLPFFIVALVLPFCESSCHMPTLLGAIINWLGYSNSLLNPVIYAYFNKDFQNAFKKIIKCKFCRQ
# protocol-text: Human 5-HT1A functional FLIPR assay (agonist mode)
# Assay type: cell-based
# Design: expressed in transfected cells; host or cells: HTR1A&Gα15-CHO
# cond: @10 μM, RFU=Fmax−Fmin (Table 18)
Entries annotated with measured RFU@10 μM

structure-as-smiles | measured-endpoint | recorded-result
CCN(C)CCc1c[nH]c2ccc(SC)cc12 | RFU@10 μM | 4,279 RFU
CCN(CC)CCc1c[nH]c2ccc(SC)cc12 | RFU@10 μM | 3,735 RFU
CSc1ccc2[nH]cc(CCN(C)C(C)C)c2c1 | RFU@10 μM | 2,161 RFU
[2H]C([2H])([2H])N(CCc1c[nH]c2ccc(SC)cc12)C([2H])([2H])[2H] | RFU@10 μM | 2,858 RFU
CSc1ccc2[nH]cc(CCN(C(C)C)C(C)C)c2c1 | RFU@10 μM | 2,289 RFU

Turning now to a further record.
Prompt: Dear colleague, I am looking for the recorded RFU@10 μM of the following compound: CN(C)CCc1c[nH]c2ccccc12
Response: 204 RFU

* * *

# protocol-text: Rat liver microsomes stability
# Format: in vitro ADME
# cond: rat liver microsomes, With Cofactors, 60 min
Here, each record is paired with measured Remaining Percentage (%) data.
Provide the reading as a plain figure in %.

Worked examples, 5 compounds total:
compound | Remaining Percentage (%)
CN(CCOC(F)F)CCc1c[nH]c2ccccc12 | 0.00
COc1ccc2[nH]cc(CCN(C)C)c2c1 | 0.36
CN(C)CCc1c[nH]c2ccc(OCCOC(F)F)cc12 | 0.56
COc1ccc2[nH]cc(CCN3CC[C@@H](OC)C3)c2c1 [(R) I-66] | 9.71
O=C(O)Cc1ccccc1Nc1c(Cl)cccc1Cl | 6.35

Prompt: Need Remaining Percentage (%), item COc1ccc2[nH]cc(CCN3CC[C@H](OC(F)F)C3)c2c1 [(S) I-67]
Response: 0.00

Prompt: And then COc1ccc2[nH]cc(CCN3CC[C@@H](OC(F)F)C3)c2c1 [(R) I-67] , what is it?
Response: 1.93

Prompt: Please give the result for COc1ccc2[nH]cc(CCN(C)CCOC(F)F)c2c1 too.
Response: 1.37

* * *

Listed here: items and their measured concentration at 4 h.
# protocol-text: Pharmacokinetic studies in rat (i.v.)
# Type: in vivo
# cond: male, Sprague-Dawley, rat, plasma, intravenous, rat i.v., 4 h, second individual rat (R02/R05); dose 1.37 mg/kg (I-71, I-128), 1.33 mg/kg ((S) I-67); read-out: Plasma concentration
# Protocol: Animals: Male Sprague-Dawley rats (˜225-350 g) from Charles River Labs were acclimatized for a minimum of 5 days prior to start of study procedures. Body weights were recorded on the day of dosing. Any abnormalities were documented including presence/absence of wet dog shakes/back muscle contractions (WDS/BMC). Dosing: Formulations were administered intravenously (i.v.) via the tail vein using a 25 G needle connected to a 1 cc syringe. […]

compound | concentration at 4 h
COc1ccc2[nH]cc(CCN(C)CCOC(F)F)c2c1 | 1.77 ng/mL

Consider the additional compound presented here.
Prompt: Which measured concentration at 4 h value corresponds to COc1ccc2[nH]cc(CCN3CC[C@H](OC(F)F)C3)c2c1 [(S) I-67] ?
Response: 8.41 ng/mL

* * *

# target-desc: human 5-HT2A receptor (Homo sapiens)
# Sequence (P28223 whole entry): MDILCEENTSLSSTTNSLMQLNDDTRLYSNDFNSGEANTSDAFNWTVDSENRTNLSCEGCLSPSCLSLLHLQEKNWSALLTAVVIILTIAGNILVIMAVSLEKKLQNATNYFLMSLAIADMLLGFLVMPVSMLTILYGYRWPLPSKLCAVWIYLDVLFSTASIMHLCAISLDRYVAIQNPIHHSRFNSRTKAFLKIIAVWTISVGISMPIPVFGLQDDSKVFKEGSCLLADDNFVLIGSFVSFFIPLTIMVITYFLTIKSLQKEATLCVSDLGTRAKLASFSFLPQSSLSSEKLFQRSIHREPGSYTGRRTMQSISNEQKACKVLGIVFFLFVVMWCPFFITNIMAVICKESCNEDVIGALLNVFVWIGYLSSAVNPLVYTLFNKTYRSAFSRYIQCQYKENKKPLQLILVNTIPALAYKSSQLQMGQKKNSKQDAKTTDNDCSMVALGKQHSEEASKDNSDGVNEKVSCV
# protocol-text: Human 5-HT2A functional FLIPR assay (agonist mode)
# Format: cell-based
# Set-up: expressed in transfected cells; host or cells: HTR2A&Gα15-HEK293 (tetracycline induction)
# Procedure: The potential excitatory effects of compounds targeting on human 5-hydroxytryptamine receptor 2A (5-HT2A) under agonist mode was assessed. […] 7. The cell density was counted using cell counter. […] 3. The plate was read for 160 sec with 1 sec interval and the data of agonist mode was obtained. 1. The normalized fluorescence reading (RFU) was calculated as shown below, wherein F max and F min stand for maximum and minimum of calcium signal during defined time window: […]
measured-endpoint: EC50 (nM)
# output: bare number, implied unit nM

Prompt: What value of EC50 has been recorded for this entry: CSc1ccc2[nH]cc(CCN(C)C(C)C)c2c1
Response: 33

Prompt: Next: CCN(C)CCc1c[nH]c2ccc(SC)cc12
Response: 18

Prompt: // next record CN(C)CCc1c[nH]c2ccc(OCCOC(F)F)cc12
Response: 1210

Prompt: Now consider COc1ccc2[nH]cc(CCN3CC[C@H](OC(F)F)C3)c2c1 [(S) I-67] and answer again.
Response: 994

Prompt: Please answer likewise for CCN(CC)CCc1c[nH]c2ccc(SC)cc12
Response: 77

Prompt: What would you report for CSc1ccc2[nH]cc(CCN(C(C)C)C(C)C)c2c1 ?
Response: 37

Prompt: Same thing, different molecule: [2H]C([2H])([2H])N(CCc1c[nH]c2ccc(SC)cc12)C([2H])([2H])[2H]
Response: 45
